Overview of reported cytotoxicity at 70.5 h across a group of molecules:
# EXPERIMENT_SUMMARY: Human HepG2 cell viability assay in 384 well format
# Type: toxicity, cell-based
# Design: dose 125 nL, time 70.5 hour; concentration not given beside the values
# CONDITION_INFO: HepG2 cells, read-out: Inhibition
OBSERVED_PROPERTY: cytotoxicity at 70.5 h (%)

1) CC(c1ccc(Cl)cc1)N1CCN(CCS(C)(=O)=O)CC1 (stereo unspecified)
-6.43
2) CN(C)C1CCN(C(=O)c2n[nH]c3c2CCN(CC2CCC2)C3)CC1
14.2
3) CSCC(=O)N1CCC(c2nccn2Cc2cscn2)CC1
-2.59
4) Cc1ncc2c(n1)CN(Cc1nnc(-c3occc3C)o1)CC2
4.24
5) COCC1CCN(C(=O)c2cc(-c3ccco3)nc3c(Cl)cccc23)C1 (stereo unspecified)
-20.7
6) Cc1cc(CCC(N)=O)cc(C2CCCN2Cc2cnc(C)nc2)n1 (stereo unspecified)
-7.32

---

# EXPERIMENT_SUMMARY: Human HepG2 cell viability assay in 384 well format
# Type: toxicity, cell-based
# Design: dose 125 nL, time 70.5 hour; concentration not given beside the values
# CONDITION_INFO: HepG2 cells, read-out: Inhibition
Overview of reported cytotoxicity at 70.5 h across a group of molecules:
OBSERVED_PROPERTY: cytotoxicity at 70.5 h (%)

1. COc1ccc(CNC(=O)NC(C)(CO)C2CC2)c(C(F)(F)F)c1 (stereo unspecified)
0.673
2. Cc1nn(C)cc1CN1CCc2c(nc(-c3ccccn3)[nH]c2=O)C1
-5.77
3. COc1ccc(CN2C[C@H]3CC[C@](O)(c4ccc(C)cn4)[C@H]3C2)c(F)c1
-0.817
4. Cc1cc(-c2nn(C)c(Cl)c2CN2CCOCC(O)C2)no1 (stereo unspecified)
-11.6
5. CC1(C)[C@H](Cc2cc(CO)on2)C[C@@H]1N(CC1CC1)CC1CC1
5.68
6. O=C(NCC(O)c1cccs1)c1cccc(Cl)c1 (stereo unspecified)
-2.42

---

# EXPERIMENT_SUMMARY: Human HepG2 cell viability assay in 384 well format
# Type: toxicity, cell-based
# Design: dose 125 nL, time 70.5 hour; concentration not given beside the values
# CONDITION_INFO: HepG2 cells, read-out: Inhibition
OBSERVED_PROPERTY: cytotoxicity at 70.5 h (%)

1) O=C(NCc1nc[nH]n1)c1cc(COc2cccc(F)c2)[nH]n1
11.1
2) CNC(=O)CN1CCC(CN(C)Cc2ccccc2N(C)C)CC1
1.48
3) CN(C)S(=O)(=O)c1cccc(CNc2cc(CO)ccc2Cl)c1
-13.5
4) CC(C)CNC(=O)c1c(-n2cnnn2)sc2c1CCCC2
-4.4
5) c1cc(COC[C@]23COC[C@H]2CN(Cc2ccncc2)C3)ccn1
9.04
6) CCc1noc(CN2CCN(c3nccs3)CC2)n1
10.7
7) O=S(=O)(Nc1cn[nH]c1)c1ccc(F)c(Br)c1
-4.68
8) CCn1cnnc1C1CCN(C(=O)c2cnn(C(C)(C)C)c2)CC1
-5.89
9) Cc1cc(Br)ccc1C(=O)N(C)CCNS(C)(=O)=O
-6.05
10) Cc1nc(C)n(CC2CCCCN2Cc2nc(-c3ccoc3)no2)n1 (stereo not given)
-11.8
11) Cc1cc(NCC(=O)N(C)CC(F)(F)F)c(C(N)=O)cc1F
1.83
12) CC(c1ccc(F)c(F)c1)N1CCN(Cc2nccn2C)CC1 (stereo not given)
47.8
13) CCN1CCN(S(=O)(=O)c2cnc(NC(C)=O)s2)CC1
17.3
14) O=C(NC1CCCN(c2ncccn2)C1)c1ccoc1 (stereo not given)
-1.17
15) CN(C)c1ncc(CN2CCCC(Nc3ccc4c(c3)OCCO4)C2)s1 (stereo not given)
-12.3
16) CC(Cn1cccn1)n1cnc2ccc(F)cc2c1=O (stereo not given)
-7.83
17) COCC(=O)NCCc1nc2cc(-c3ccc(OC)cc3)ncn2n1
-5.33
18) NC(=O)N1C[C@@H]2CN(C(=O)c3ccco3)C[C@@H]2C1
-7.36
19) COC(C)c1cccc(NCc2ccsc2)c1 (stereo not given)
-2.9
20) O=C(c1c(F)cc(Br)cc1F)N1CCc2cnccc21
-5.62
21) CCCN1Cc2cc(Br)ccc2OCC1=O
28.2
22) COC1CCN(S(=O)(=O)NCC2COc3ccccc3C2)CC1 (stereo not given)
-4.76
23) COc1cc(C)nc(N2CCN(C(=O)CCc3cscn3)CC2)n1
-6.3
24) Cc1ncsc1CN1CC2(CCCC2)CC1=O
0.928
25) Cc1ccc(NC2CCN(C(=O)Cn3nc(C)cc3C)CC2)nn1
-6.3
